biological target: human kisspeptin receptor (Homo sapiens (Human), UniProt Q969F8); assay: Human KISS1R binding assay (membrane competition binding); conditions: 90 min at room temperature; competition with 0.2 nM [125I]-metastin (45-54); Flp-In T-Rex 293 kisspeptin membranes; metal complexes nonradioactive Ga, In, Lu; read-out: hKiSSR Binding Ki (90 min)
Sequence (Q969F8 whole entry): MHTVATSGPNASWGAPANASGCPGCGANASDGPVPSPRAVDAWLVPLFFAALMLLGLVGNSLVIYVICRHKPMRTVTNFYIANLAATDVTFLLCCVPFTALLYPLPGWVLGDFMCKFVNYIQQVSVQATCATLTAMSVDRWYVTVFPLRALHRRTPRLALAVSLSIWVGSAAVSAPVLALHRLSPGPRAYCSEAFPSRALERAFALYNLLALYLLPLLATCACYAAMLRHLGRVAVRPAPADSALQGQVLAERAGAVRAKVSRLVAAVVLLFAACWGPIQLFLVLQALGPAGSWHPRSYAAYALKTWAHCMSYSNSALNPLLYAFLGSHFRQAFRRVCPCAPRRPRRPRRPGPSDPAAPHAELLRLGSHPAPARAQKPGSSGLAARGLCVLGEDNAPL
pKi: −log10 of the molar value. Square brackets hold non-standard residues; d marks the D form. Peptide text beside a SMILES is read from it. * marks the point of attachment. DOTA = O=C(O)CN1CCN(CC(=O)O)CCN(CC(=O)*)CCN(CC(=O)O)CC1; Gly(N-(3-F-4-Me-benzyl)) = Cc1ccc(CNCC(=O)*)cc1F; Phe(3-F) = N[C@@H](Cc1cccc(F)c1)C(=O)O; Api = NC1(C(=O)O)CCNCC1; Ahx = NCCCCCC(=O)O; azaGly = NNC(=O)O
MEASURED_METRIC: pKi

compound="Cc1ccc(CNCC(=O)N2CCC(NC(=O)[C@H](CC(C)C)NC(=O)NNC(=O)[C@H](Cc3cccc(F)c3)NC(=O)[C@@H](NC(=O)[C@H](CC(N)=O)NC(=O)[C@H](CCCCN)NC(=O)[C@@H](Cc3ccc(O)cc3)NC(=O)CCCCCNC(=O)CN3CCN(CC(=O)O)CCN(CC(=O)O)CCN(CC(=O)O)CC3)[C@@H](C)O)(C(=O)N[C@@H](Cc3c[nH]c4ccccc34)C(N)=O)CC2)cc1F [Compound 27] ({DOTA-Ahx}-[dY]KNT[Phe(3-F)][azaGly]L[Api](Gly(N-(3-F-4-Me-benzyl)))W-NH2)" measured_metric=pKi endpoint_result="> 8.00"

In one line, give reported pKi of the entry CC(=O)N[C@H](Cc1ccc(O)cc1)C(=O)N[C@H](Cc1c[nH]c2ccccc12)C(=O)N[C@@H](CC(N)=O)C(=O)N[C@H](C(=O)N[C@@H](Cc1ccccc1)C(=O)NNC(=O)N[C@@H](CC(C)C)C(=O)NC1(C(=O)N[C@@H](Cc2c[nH]c3ccccc23)C(N)=O)CCN(C(=O)CNCc2ccc(C)c(F)c2)CC1)[C@@H](C)O [Compound 390] (Ac-[dY][dW]NTF[azaGly]L[Api](Gly(N-(3-F-4-Me-benzyl)))W-NH2) . > 8.00
